tested on: BDF1 mice, L1210 6-MP/6-TG resistant leukemia ip, survival T/C; test: NCI In Vivo Anticancer Drug Screen. Data for tumor model L1210 Leukemia resistant to 6-MP and 6-Thioguanine; NSC 755, NSC 752 (intraperitoneal) in B6D2F1 (BDF1) mice; conditions: endpoint: mean survival time; dose: 62.5 mg/kg/injection; schedule: Q01DX Z (ip); vehicle: carboxymethylcellulose (CMC); higher = longer survival
Inconclusive results and toxic doses are left out.
Listed here are compounds together with their documented T/C.

O=C1C(NC(=O)C2CCCCC2)=C(N2CC2)C(=O)C(NC(=O)C2CCCCC2)=C1N1CC1    101 % of control
CSc1ncnc2nc[nH]c12    92 % of control
OCC1OC(n2cnc3c(Cl)ncnc32)C(O)C1O (centres undefined)    91 % of control

Continue with the next compound.
Request: Could you please provide reported T/C for Ic1ncnc2nc[nH]c12 ? Thanks!
Response: 88 % of control
